- test.system: human LMPTP-A (Homo sapiens)
Reported IC50 is given for each of the following molecules.

See these solved cases before continuing.
## Input Record "COc1cc(-c2ccc3c(c2)cc(C(=O)NC2CCN(C)CC2)n3C)nc2ccncc12" : what is its IC50 with human LMPTP-A (Homo sapiens)?
## Output ≥ 20000 nM

## Input Form entry - test system: human LMPTP-A (Homo sapiens); read-out: IC50; molecule: "CCN1CCN(C(=O)c2cc3ccc(-c4cc(NCCCN5CCCCC5)c5cnccc5n4)cc3[nH]2)CC1"
## Output ≤ 1000 nM

## Input Lab request: please report IC50 under test system human LMPTP-A (Homo sapiens) for "CN1CCC(NC(=O)c2ccc(-c3cc(NCCCN4CCCCC4)c4cnccc4n3)c(C#N)c2)CC1"
## Output 1000 to 20000 nM

## Input Can you look up IC50 on human LMPTP-A (Homo sapiens) for "CN1CCC(CNC(=O)c2cc3cc(-c4cc(NCc5ccc(CN6CCCCC6)cc5)c5cnccc5n4)ccc3n2C)CC1" ?
## Output ≤ 1000 nM

## Input Form field - read-out: IC50; system: human LMPTP-A (Homo sapiens); submitted item: "CN1CCC(N/C(=N\O)c2ccc(-c3cc(NCCCN4CCCCC4)c4cnccc4n3)cc2)CC1"
## Output 1000 to 20000 nM

## Input Record lookup: for human LMPTP-A (Homo sapiens), what IC50 belongs to "CCN(CC)C(=O)CCc1ccc(-c2cc(NC3CCN(C)CC3)c3cnccc3n2)cc1" ?
## Output ≤ 1000 nM

## Input Hi! What's the reported IC50 for "CN1CCC(CNC(=O)C#Cc2ccc(-c3cc(NCCCN4CCCCC4)c4cnccc4n3)cc2)CC1" on human LMPTP-A (Homo sapiens)?
## Output 1000 to 20000 nM

## Input Report IC50 for "CN1CCC(NC(=O)c2cc3cc(-c4cc(OCCCN5CCCCC5)c5cnccc5n4)ccc3n2C)CC1" tested on human LMPTP-A (Homo sapiens).
## Output 1000 to 20000 nM

Continuing:
## Input Please tell me: IC50 of "CN1CCC(NC(=O)c2cc3cc(-c4cc(NCCCN5CCCCC5)c5cnccc5n4)ccc3n2C)CC1" , system human LMPTP-A (Homo sapiens)?
## Output ≤ 1000 nM

## Input Given the entry "CCN(CC)C(=O)c1ccc(-c2cc(NCCCN3CCN(C)CC3)c3cnccc3n2)cc1" , what IC50 was observed with human LMPTP-A (Homo sapiens)?
## Output 1000 to 20000 nM

## Input Entry "Cn1c(C(=O)NC2CCNCC2)cc2cc(-c3cc(NCCCN4CCCCC4)c4cnccc4n3)ccc21" , system human LMPTP-A (Homo sapiens): what IC50 was measured?
## Output ≤ 1000 nM

----------
- test.system: human LMPTP-A (Homo sapiens, UniProt P24666)
- Sequence (P24666 whole entry): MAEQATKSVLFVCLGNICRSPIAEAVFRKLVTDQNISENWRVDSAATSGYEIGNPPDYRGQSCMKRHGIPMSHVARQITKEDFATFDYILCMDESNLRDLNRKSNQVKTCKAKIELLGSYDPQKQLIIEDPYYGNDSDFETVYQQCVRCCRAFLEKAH
Recorded IC50, one value per entry.

For orientation, consider the following solved cases.
## Input Any idea what IC50 came out for "CN1CCN(C(=O)c2cc3ccc(-c4cc(NCCCN5CCCCC5)c5cnccc5n4)cc3s2)CC1" on human LMPTP-A (Homo sapiens, UniProt P24666)?
## Output ≤ 1 µM

## Input Any idea what IC50 came out for "CCN(CC)C(=O)c1ccc(-c2cc(NCCCN3CCCCC3)c3cnccc3n2)c(C#N)c1" on human LMPTP-A (Homo sapiens, UniProt P24666)?
## Output 1 to 20 µM

## Input Recall the recorded IC50 for "CCN1CCC(CNC(=O)CCOc2ccc(-c3cc(NCCCN4CCCCC4)c4cnccc4n3)cc2)CC1" with human LMPTP-A (Homo sapiens, UniProt P24666) and state it.
## Output ≥ 20 µM

Let's switch to this compound now.
## Input Lookup: IC50 / human LMPTP-A (Homo sapiens, UniProt P24666) / "CN(C)CCNC(=O)c1nc2cc(-c3cc(NCCCN4CCCCC4)c4cnccc4n3)ccc2[nH]1"
## Output ≤ 1 µM

Taken from patent US11731986B2.
